The entries below come with measured pIC50 values attached.
target_desc: Bifunctional epoxide hydrolase 2 (Homo sapiens)
assay_comment: Inhibition of recombinant human soluble epoxide hydrolase using PHOME as substrate assessed as 6-methoxynaphthaldehyde product formation preincubated with compound for 10 mins followed by substrate addition and measured by fluorescence based analysis
Friendly reminder that pIC50 comes from taking -log10 of the concentration in mol/L.

Below, 2 compounds whose answers are already recorded.
compound="C[C@]12C[C@@H]3C[C@](C)(C1)C[C@@](NC(=O)Nc1ccc(CN4CCCC(C(=O)NCCO)C4)cc1F)(C3)C2 (stereo partly drawn)" readout_label=pIC50 value_measured=9.20
compound="C=C(C)C(=O)N1CCCN(C(=O)C2CCCN(Cc3ccc(NC(=O)N[C@@]45C[C@@H]6C[C@@](C)(C[C@@](C)(C6)C4)C5)c(F)c3)C2)CC1 (stereo partly drawn)" readout_label=pIC50 value_measured=9.05

# next compound below
Bifunctional epoxide hydrolase 2 (Homo sapiens) assay, compound CC(O)CNC(=O)C1CCC(NC(=O)c2ccc(NC(=O)N[C@@]34C[C@@H]5C[C@@](C)(C[C@@](C)(C5)C3)C4)c(F)c2)CC1 (stereo partly drawn) , recorded pIC50 = 8.81

----------
target_desc: Bifunctional epoxide hydrolase 2 (Homo sapiens)
Sequence (P34913 whole entry): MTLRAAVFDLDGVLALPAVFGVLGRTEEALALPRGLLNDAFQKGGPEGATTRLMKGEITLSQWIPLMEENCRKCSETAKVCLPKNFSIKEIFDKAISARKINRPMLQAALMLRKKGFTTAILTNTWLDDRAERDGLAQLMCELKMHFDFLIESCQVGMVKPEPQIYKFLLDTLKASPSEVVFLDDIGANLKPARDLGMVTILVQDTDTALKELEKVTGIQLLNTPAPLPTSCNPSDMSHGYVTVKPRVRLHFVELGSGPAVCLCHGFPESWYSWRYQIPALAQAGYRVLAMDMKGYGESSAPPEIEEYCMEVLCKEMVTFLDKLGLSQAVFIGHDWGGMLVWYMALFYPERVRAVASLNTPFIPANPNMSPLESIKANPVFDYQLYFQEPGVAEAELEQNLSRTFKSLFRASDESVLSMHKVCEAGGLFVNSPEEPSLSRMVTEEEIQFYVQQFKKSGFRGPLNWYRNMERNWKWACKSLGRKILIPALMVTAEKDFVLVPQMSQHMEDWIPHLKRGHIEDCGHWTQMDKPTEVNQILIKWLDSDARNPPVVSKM
assay_comment: Inhibition of recombinant human soluble epoxide hydrolase using PHOME as substrate assessed as 6-methoxynaphthaldehyde product formation preincubated with compound for 10 mins followed by substrate addition and measured by fluorescence based analysis
readout_label: IC50 (nM)
# value in nM; strip the unit string

Below, 3 compounds whose answers are already recorded.
compound="C[C@]12C[C@@H]3C[C@](C)(C1)C[C@@](NC(=O)Nc1ccc(CN4CCCC(C(=O)N(CCO)CCO)C4)cc1F)(C3)C2 (stereo not given in full)" value_measured=0.28
compound=CN(C)CCN1CCC(CC(=O)N2CCCN(Cc3ccc(NC(=O)N[C@@]45C[C@@H]6C[C@@](C)(C[C@@](C)(C6)C4)C5)c(F)c3)CC2)CC1 value_measured=2.59
compound="C=CC(=O)N1CCCN(C(=O)C2CCCN(Cc3ccc(NC(=O)N[C@@]45C[C@@H]6C[C@@](C)(C[C@@](C)(C6)C4)C5)c(F)c3)C2)CC1 (stereo not given in full)" value_measured=0.42

Bifunctional epoxide hydrolase 2 (Homo sapiens) assay, compound C[C@]12C[C@@H]3C[C@](C)(C1)C[C@@](NC(=O)Nc1ccc(C(=O)NC4CCC(C(=O)N5CCC(CCO)CC5)CC4)cc1F)(C3)C2 (stereo not given in full) , recorded IC50 = 16

Bifunctional epoxide hydrolase 2 (Homo sapiens) assay, compound C[C@]12C[C@@H]3C[C@](C)(C1)C[C@](NC(=O)Nc1ccc(C(=O)N4CCCC(C(=O)NCCO)C4)cc1F)(C3)C2 (stereo not given in full) , recorded IC50 = 0.35
